testedTarget: Dyrk1B (Homo sapiens, UniProt Q9Y463)
Construct: purchased Life Technologies PV4649 (LOT # 877059G)
Sequence (Q9Y463 whole entry): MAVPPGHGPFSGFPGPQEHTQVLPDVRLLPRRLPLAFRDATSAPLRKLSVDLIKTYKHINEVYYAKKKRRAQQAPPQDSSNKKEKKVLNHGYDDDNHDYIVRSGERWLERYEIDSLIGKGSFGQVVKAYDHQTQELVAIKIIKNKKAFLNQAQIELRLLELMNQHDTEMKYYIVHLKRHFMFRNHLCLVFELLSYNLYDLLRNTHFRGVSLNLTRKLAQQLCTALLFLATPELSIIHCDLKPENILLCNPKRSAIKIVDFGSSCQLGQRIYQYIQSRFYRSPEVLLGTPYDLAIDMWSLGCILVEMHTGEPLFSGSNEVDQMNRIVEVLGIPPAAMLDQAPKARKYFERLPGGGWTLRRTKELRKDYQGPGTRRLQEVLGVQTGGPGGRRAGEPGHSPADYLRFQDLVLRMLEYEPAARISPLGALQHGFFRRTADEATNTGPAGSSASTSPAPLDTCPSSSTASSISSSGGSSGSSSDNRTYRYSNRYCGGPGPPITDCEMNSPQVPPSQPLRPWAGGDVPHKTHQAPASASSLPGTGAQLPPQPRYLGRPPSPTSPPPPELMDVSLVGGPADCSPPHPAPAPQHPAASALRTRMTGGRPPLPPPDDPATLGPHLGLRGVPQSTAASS
experimentalProtocol: Dyrk1B kinase assay (32P-ATP, Woodtide)
Type: biochemical
conditionDetails: at 5 µM; read-out: percentage of inhibition Dyrk1B
inhibition at 5 µM values by entry
Record the value in %, omitting the unit from your answer.

Illustrative cases are given below, each with its answer.
Need inhibition at 5 µM of c1cncc(-c2csc(-c3cncnc3)c2)c1 , thanks. 70

Also check CSc1ncc(-c2csc(-c3cnco3)c2)cn1 21

Also check c1ncc(-c2csc(-c3cncnc3)c2)cn1 27

Also check c1cncc(-c2csc(-c3cnco3)c2)c1 83

Others:
Need inhibition at 5 µM of Clc1cncc(-c2csc(-c3cnco3)c2)c1 , thanks. 18

----------
testedTarget: TrkB (Homo sapiens, UniProt Q16620)
Construct: purchased Life Technologies (Invitrogen SelectScreen); Dyrk1A, Dyrk2 and CK2α in-house or gifts
Sequence (Q16620 32-822): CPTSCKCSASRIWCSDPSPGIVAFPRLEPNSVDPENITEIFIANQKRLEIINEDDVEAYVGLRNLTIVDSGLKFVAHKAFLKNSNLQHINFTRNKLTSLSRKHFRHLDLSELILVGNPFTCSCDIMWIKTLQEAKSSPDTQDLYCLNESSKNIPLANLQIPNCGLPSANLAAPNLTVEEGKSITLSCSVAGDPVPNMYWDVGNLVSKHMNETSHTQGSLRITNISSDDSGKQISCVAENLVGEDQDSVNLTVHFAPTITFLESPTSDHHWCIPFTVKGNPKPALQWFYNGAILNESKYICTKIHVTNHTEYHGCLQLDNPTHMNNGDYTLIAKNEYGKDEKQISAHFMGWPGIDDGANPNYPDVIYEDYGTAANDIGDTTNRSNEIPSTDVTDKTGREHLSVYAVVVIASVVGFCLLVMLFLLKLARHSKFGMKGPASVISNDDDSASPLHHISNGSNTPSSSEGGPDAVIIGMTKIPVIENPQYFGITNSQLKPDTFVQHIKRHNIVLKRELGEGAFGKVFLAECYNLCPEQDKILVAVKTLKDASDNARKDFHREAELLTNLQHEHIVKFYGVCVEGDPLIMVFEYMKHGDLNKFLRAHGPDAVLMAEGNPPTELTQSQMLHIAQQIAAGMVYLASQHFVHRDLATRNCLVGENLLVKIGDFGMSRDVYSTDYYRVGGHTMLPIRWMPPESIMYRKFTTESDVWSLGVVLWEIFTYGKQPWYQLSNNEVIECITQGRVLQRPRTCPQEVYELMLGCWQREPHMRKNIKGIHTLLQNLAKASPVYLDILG
experimentalProtocol: Selectivity panel TrkB
Assay type: biochemical
conditionDetails: 5 µM inhibitor
inhibition at 5 µM values by entry
Record the value in %, omitting the unit from your answer.

Illustrative cases are given below, each with its answer.
Need inhibition at 5 µM of Cn1cc(-c2csc(-c3cccnc3)c2)cn1 [Compound 30] , thanks. -5

Also check c1cncc(-c2csc(-c3cncnc3)c2)c1 [Compound 41] 22

Also check c1cncc(-c2csc(-c3cnco3)c2)c1 [Compound 33] 23

Others:
Need inhibition at 5 µM of c1cncc(-c2csc(-c3cncs3)c2)c1 [Compound 48] , thanks. 0

Also check c1cncc(-c2cc(-c3cncs3)cs2)c1 [Compound 29] 24

----------
log10(IC50) values by entry
testedTarget: Dyrk1A (Homo sapiens, UniProt Q13627)
Construct: encoding the catalytic domain of human Dyrk1A; thrombin cleavage site (N)
experimentalProtocol: Dyrk1A kinase assay (32P-ATP, Woodtide)
conditionDetails: 100 µM ATP
Hello, just confirming the data are log10 of IC50 with units of µM.

Need log10(IC50) of Cc1ccc(-c2csc(-c3cccnc3)c2)cn1 , thanks. 0.67

Also check c1cncc(-c2csc(-c3cncs3)c2)c1 -1.00

Others:
Need log10(IC50) of NC(=O)c1cncc(-c2csc(-c3cccnc3)c2)c1 , thanks. -0.05

Also check Cc1cc(-c2csc(-c3cccc(O)c3)c2)ccc1O 0.30

Also check CC(=O)c1cncc(-c2csc(-c3cccnc3)c2)c1 -0.05

----------
testedTarget: Clk3 (Homo sapiens)
Construct: purchased Life Technologies (Invitrogen SelectScreen); Dyrk1A, Dyrk2 and CK2α in-house or gifts
Sequence (P49761 whole entry): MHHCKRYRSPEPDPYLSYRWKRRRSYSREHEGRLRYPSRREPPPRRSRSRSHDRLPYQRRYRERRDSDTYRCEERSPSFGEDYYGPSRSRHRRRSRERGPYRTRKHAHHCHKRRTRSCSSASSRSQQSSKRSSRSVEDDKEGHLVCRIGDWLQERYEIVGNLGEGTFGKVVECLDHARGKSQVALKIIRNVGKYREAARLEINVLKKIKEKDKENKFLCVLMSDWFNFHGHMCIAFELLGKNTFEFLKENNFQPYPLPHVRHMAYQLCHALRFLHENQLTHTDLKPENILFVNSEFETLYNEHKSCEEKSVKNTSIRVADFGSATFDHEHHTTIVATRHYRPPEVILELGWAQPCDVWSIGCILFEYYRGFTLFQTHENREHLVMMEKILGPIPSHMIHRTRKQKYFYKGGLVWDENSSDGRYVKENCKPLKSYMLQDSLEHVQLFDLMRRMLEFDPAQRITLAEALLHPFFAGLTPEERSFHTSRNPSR
experimentalProtocol: Selectivity panel Clk3
Type: biochemical
conditionDetails: 5 µM inhibitor
inhibition at 5 µM values by entry
Record the value in %, omitting the unit from your answer.

Illustrative cases are given below, each with its answer.
Need inhibition at 5 µM of c1cncc(-c2csc(-c3cnco3)c2)c1 , thanks. 5

Also check c1cncc(-c2csc(-c3cncs3)c2)c1 31

Also check c1cncc(-c2cc(-c3cncs3)cs2)c1 12

Also check c1cncc(-c2csc(-c3cncnc3)c2)c1 5

Others:
Need inhibition at 5 µM of Cn1cc(-c2csc(-c3cccnc3)c2)cn1 , thanks. 17

----------
experimentalProtocol: Determination of logP, pka and logS (Sirius T3)
Format: physicochemical
conditionDetails: Experimental; read-out: Solubility
endpointLabel: solubility (µg/mL)
Record the value in µg/mL, omitting the unit from your answer.

Need solubility of c1cncc(-c2csc(-c3cccnc3)c2)c1 , thanks. 500
